Value source: ChEMBL document CHEMBL1146172

EXPERIMENTAL_PROTOCOL: Clearance in rat at 2 mpk, iv
CONDITION: in vivo, 2 mg/kg
Consider the following molecules; for each one, report its clearance.
Express your answer in mL/min/kg, writing the number without its unit.

Challenge: State its clearance for this molecule: CN1C(=O)NC(=O)[C@]12Cc1ccc(NC(=O)Cn3c(=O)n(C4CCS(=O)(=O)C4)c4ccccc43)cc1C2 (some centres undefined)
Response given: 31

Challenge: State its clearance for this molecule: CN1C(=O)NC(=O)[C@]12Cc1ccc(NC(=O)Cn3c(=O)n(C4CCOC4)c4ccccc43)cc1C2 (some centres undefined)
Response given: 9

Challenge: State its clearance for this molecule: `CN1C(=O)NC(=O)[C@]12Cc1ccc(NC(=O)Cn3c(=O)n(-c4cnccn4)c4ccccc43)cc1C2`
Response given: 11

Challenge: State its clearance for this molecule: `CN1C(=O)NC(=O)[C@]12Cc1ccc(NC(=O)Cn3c(=O)n(-c4nccs4)c4ccccc43)cc1C2`
Response given: 3.7

###

Consider the following compounds; for each one, report its bioavailability.
EXPERIMENTAL_PROTOCOL: Bioavailability in rat at 10 mg/kg, po
Assay type: ADME, organism-based
CONDITION: in vivo
Express your answer in %, writing the number without its unit.

Challenge: State its bioavailability for this compound: `COc1cccc(-n2c(=O)n(CC(=O)Nc3ccc4c(c3)C[C@]3(C4)C(=O)NC(=O)N3C)c3ccccc32)n1`
Response given: 13

Challenge: State its bioavailability for this compound: `CN1C(=O)NC(=O)[C@]12Cc1ccc(NC(=O)Cn3c(=O)n(-c4cnsc4)c4ccccc43)cc1C2`
Response given: 1

Challenge: State its bioavailability for this compound: `CN1C(=O)NC(=O)[C@]12Cc1ccc(NC(=O)Cn3c(=O)n(-c4cnccn4)c4ccccc43)cc1C2`
Response given: 1

###

EXPERIMENTAL_PROTOCOL: Clearance in rhesus at 0.5 mpk, iv
CONDITION: Macaca mulatta, rhesus monkey, in vivo, 0.5 mg/kg
METRIC: clearance (mL/min/kg)
Express your answer in mL/min/kg, writing the number without its unit.

Challenge: State its clearance for this compound: `CN1C(=O)NC(=O)[C@]12Cc1ccc(NC(=O)Cn3c(=O)n(-c4ccccn4)c4ccccc43)cc1C2`
Response given: 0.85

###

Consider the following molecules; for each one, report its Vdss.
System: Rattus norvegicus
EXPERIMENTAL_PROTOCOL: Volume of distribution in rat at 2 mpk, iv
CONDITION: in vivo, 2 mg/kg
Express your answer in L/kg, writing the number without its unit.

Challenge: State its Vdss for this molecule: `CN1C(=O)NC(=O)[C@]12Cc1ccc(NC(=O)Cn3c(=O)n(-c4ccccn4)c4ccccc43)cc1C2`
Response given: 0.47

Challenge: State its Vdss for this molecule: `CN1C(=O)NC(=O)[C@]12Cc1ccc(NC(=O)Cn3c(=O)n(-c4nccs4)c4ccccc43)cc1C2`
Response given: 0.54

Challenge: State its Vdss for this molecule: CN1C(=O)NC(=O)[C@]12Cc1ccc(NC(=O)Cn3c(=O)n(C4CCS(=O)(=O)C4)c4ccccc43)cc1C2 (some centres undefined)
Response given: 0.8

Challenge: State its Vdss for this molecule: `CN1C(=O)NC(=O)[C@]12Cc1ccc(NC(=O)Cn3c(=O)n(-c4nccc(C(F)(F)F)n4)c4ccccc43)cc1C2`
Response given: 1.8

###

EXPERIMENTAL_PROTOCOL: Clearance in rat at 2 mpk, iv
CONDITION: in vivo, 2 mg/kg
Consider the following compounds; for each one, report its clearance.
Express your answer in mL/min/kg, writing the number without its unit.

Challenge: State its clearance for this compound: `COc1cccc(-n2c(=O)n(CC(=O)Nc3ccc4c(c3)C[C@]3(C4)C(=O)NC(=O)N3C)c3ccccc32)n1`
Response given: 11

Challenge: State its clearance for this compound: `CN1C(=O)NC(=O)[C@]12Cc1ccc(NC(=O)Cn3c(=O)n(-c4cncnc4)c4ccccc43)cc1C2`
Response given: 46

Challenge: State its clearance for this compound: `CN1C(=O)NC(=O)[C@]12Cc1ccc(NC(=O)Cn3c(=O)n(-c4cc(F)cc(F)c4)c4ccccc43)cc1C2`
Response given: 3.1

Challenge: State its clearance for this compound: `CN1C(=O)NC(=O)[C@]12Cc1ccc(NC(=O)Cn3c(=O)n(-c4ccccn4)c4ccccc43)cc1C2`
Response given: 3.4
